# measured_on: T1, Human DLL3 expressed on cells (HEK293T-hDLL3, NCI-H82, SHP-77, MC38-hDLL3) (human, UniProt Q9NYJ7 27-618)
# T1 construct: also called DLL3 endogenously expressed on human cells
# T1 sequence: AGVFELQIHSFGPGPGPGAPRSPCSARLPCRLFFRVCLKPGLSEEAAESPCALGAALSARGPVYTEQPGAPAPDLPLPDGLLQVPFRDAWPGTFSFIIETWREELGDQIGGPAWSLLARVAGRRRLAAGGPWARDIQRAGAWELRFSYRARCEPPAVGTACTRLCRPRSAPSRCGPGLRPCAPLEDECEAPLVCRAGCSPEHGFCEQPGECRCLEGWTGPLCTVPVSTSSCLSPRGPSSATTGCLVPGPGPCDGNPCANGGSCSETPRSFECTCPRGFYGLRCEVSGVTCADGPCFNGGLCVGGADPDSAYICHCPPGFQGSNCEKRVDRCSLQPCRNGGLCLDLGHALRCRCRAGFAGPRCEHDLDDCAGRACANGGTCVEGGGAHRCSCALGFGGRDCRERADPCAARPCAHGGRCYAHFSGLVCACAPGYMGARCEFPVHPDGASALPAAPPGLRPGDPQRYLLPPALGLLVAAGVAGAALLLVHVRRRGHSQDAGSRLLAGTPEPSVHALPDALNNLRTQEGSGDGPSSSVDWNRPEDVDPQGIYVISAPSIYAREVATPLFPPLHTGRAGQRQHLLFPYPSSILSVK
# method_summary: flow cytometry titration on HEK293T-hDLL3 cells, with HSA
pEC50: −log10 of the molar value.
Below is a list of entries, each paired with its recorded pEC50 value.
outcome_measure: pEC50

binder	outcome_measure	readout_value
MAM282 (two domain ankyrin repeat protein, N-terminal His6-TEV tag) (designed binder, also called 2D DARPin) MRGSHHHHHHENLYFQDLGKKLLEAARAGQDDEVRELLKAGADVNAKDYFSHTPLHLAARNGHLKIVEVLLKAGADVNAKDFAGKTPLHLAADAGHLEIVEVLLKAGADVNAQDIFGKTPADIAADAGHEDIAEVLQKAAGSPTPTPTTPTPTPTTPTPTPTGSDLGKKLLAAAREGQDDEVRELLKAGADVNAKDIWGQTPLHIAAWFGHLEIVEVLLKAGADVNAKDQTGHTPLHLAAKFGHLEIVEVLLKAGADVNAQDLLGRTPADLAAEEGHEDIAEVLQKAA	pEC50	7.71
MAM112 (single domain ankyrin repeat protein, His-tagged) (designed binder, also called 1D DARPin; not shown: His-tag) DLGKKLLAAAADGQDDEVRELLQAGADVNAKDLFGYTPLHLAAWRGHLEIVEVLLEAGADVNAKDAAGETPLHLAAWFGHLEIVEVLLEAGADVNAQDVQGKTPADLAAKEGHEDIAEVLQQAA	pEC50	8.34
MAM279 (two domain ankyrin repeat protein, N-terminal His6-TEV tag) (designed binder, Cleavage of the tag is not reported; also called 2D DARPin) MRGSHHHHHHENLYFQDLGKKLLEAARAGQDDEVRELLKAGADVNAKDYFSHTPLHLAARNGHLKIVEVLLKAGADVNAKDFAGKTPLHLAADAGHLEIVEVLLKAGADVNAQDIFGKTPADIAADAGHEDIAEVLQKAAGSPTPTPTTPTPTPTTPTPTPTGSDLGKKLLAAAAQGQDDEVRELLKAGANVNAKDLFGYTPLHLAAWRGHLEIVEVLLKAGADVNAKDAAGETPLHLAAWFGHLEIVEVLLKAGADVNAQDLQGKTPADLAAKEGHEDIAEVLQKAA	pEC50	7.79
MAM283 (two domain ankyrin repeat protein, N-terminal His6-TEV tag) (designed binder, also called 2D DARPin) MRGSHHHHHHENLYFQDLGKKLLEAARAGQDDEVRELLKAGADVNAKDYFSHTPLHLAARNGHLKIVEVLLKAGADVNAKDFAGKTPLHLAADAGHLEIVEVLLKAGADVNAQDIFGKTPADIAADAGHEDIAEVLQKAAGSPTPTPTTPTPTPTTPTPTPTGSDLGKKLLAAAADGQDDEVRELLQAGADVNAKDLFGYTPLHLAAWRGHLEIVEVLLEAGADVNAKDAAGETPLHLAAWFGHLEIVEVLLEAGADVNAQDVQGKTPADLAAKEGHEDIAEVLQQAA	pEC50	7.74
MAM093 (single domain ankyrin repeat protein, His-tagged) (designed binder, also called 1D DARPin; not shown: His-tag) DLGKKLLAAAAQGQDDEVRELLKAGANVNAKDLFGYTPLHLAAWRGHLEIVEVLLKAGADVNAKDAAGETPLHLAAWFGHLEIVEVLLKAGADVNAQDLQGKTPADLAAKEGHEDIAEVLQKAA	pEC50	8.26
MAM088 (single domain ankyrin repeat protein, His-tagged) (designed binder, also called 1D DARPin; not shown: His-tag) DLGKKLLAAAREGQDDEVRELLKAGADVNAKDIWGQTPLHIAAWFGHLEIVEVLLKAGADVNAKDQTGHTPLHLAAKFGHLEIVEVLLKAGADVNAQDLLGRTPADLAAEEGHEDIAEVLQKAA	pEC50	8.29
